# assay_details: Cyclic voltammetry
# Assay type: physicochemical
# reported_conditions: Run1, scan rate 25 mV s^−1
Respond with class 1 for ΔEp values of 100 mV and above, class 0 for values below.

Some entries whose results are on file:
Please check the record [Fe+2].c1cc[cH-]c1.c1cc[cH-]c1 [Fc, ferrocene, reference compound] and state if its ΔEp is at or above 100 mV.
class 1

Please check the record `O=C(NCCn1c(-c2ccccc2)nc2ccccc21)[c-]1cccc1.[Fe+2].c1cc[cH-]c1` and state if its ΔEp is at or above 100 mV.
class 0

Please check the record `O=C(NCCn1cnc2ccccc21)[c-]1cccc1.[Fe+2].c1cc[cH-]c1` and state if its ΔEp is at or above 100 mV.
class 1

Please check the record `O=C(NCCn1cnc2cccnc21)[c-]1cccc1.[Fe+2].c1cc[cH-]c1` and state if its ΔEp is at or above 100 mV.
class 0

Turning now to a further record.
Please check the record O=C(O)[c-]1cccc1.[Fe+2].c1cc[cH-]c1 [FcCOOH, ferrocene carboxylic acid, reference compound] and state if its ΔEp is at or above 100 mV.
class 0

Hello, the source for this data is paper PMC11385693, in case you need it.
